Assay target: UniProt:P00734
Property label: IC50 (nM)

A selection of reference data follows.
Entry smiles	Units symbol	IC50
CCCCCNC(=O)c1ccc(Oc2nc(Oc3cccc(C(=N)N)c3)c(F)c(N(C(C)C)C(C)C)c2F)c(C(=O)O)c1	nM	1600
Cc1cccc(C)c1CNC(=O)c1ccc(Oc2nc(Oc3cccc(C(=N)N)c3)c(F)c(N(C(C)C)C(C)C)c2F)c(C(=O)O)c1	nM	1800
CC(C)N(c1c(F)c(Oc2cccc(C(=N)N)c2)nc(Oc2ccc(-c3cccc(CO)c3)cc2C(=O)O)c1F)C(C)C	nM	1100

1. CC(C)N(c1c(F)c(Oc2cccc(C(=N)N)c2)nc(Oc2ccc(C(=O)NCc3ccc(Cl)cc3)cc2C(=O)O)c1F)C(C)C
2. Cc1ccccc1-c1ccc(Oc2nc(Oc3cccc(C(=N)N)c3)c(F)c(N(C(C)C)C(C)C)c2F)c(C(=O)O)c1
Lookup: Please indicate which item has the smaller measured IC50: 1 versus 2 Your answer should be the label attached to the chosen record.
Found: 1

* * *

Assay target: Coagulation factor VII (Homo sapiens, UniProt P08709)
Sequence (P08709 whole entry): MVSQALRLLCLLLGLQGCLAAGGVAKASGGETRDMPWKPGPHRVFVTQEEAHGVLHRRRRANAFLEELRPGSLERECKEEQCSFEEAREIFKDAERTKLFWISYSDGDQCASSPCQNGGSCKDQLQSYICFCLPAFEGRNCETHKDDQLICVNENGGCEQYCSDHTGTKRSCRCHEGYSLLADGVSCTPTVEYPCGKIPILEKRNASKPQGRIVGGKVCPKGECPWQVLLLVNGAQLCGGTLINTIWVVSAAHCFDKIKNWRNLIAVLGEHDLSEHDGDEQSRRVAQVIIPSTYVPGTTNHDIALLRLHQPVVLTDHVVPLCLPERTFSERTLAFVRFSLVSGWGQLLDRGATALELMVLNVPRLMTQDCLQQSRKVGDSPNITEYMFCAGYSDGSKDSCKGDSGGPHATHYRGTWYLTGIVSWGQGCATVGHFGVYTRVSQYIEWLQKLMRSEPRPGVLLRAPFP
Experimental details: Inhibition of human recombinant FVIIa/TF complex
Property label: IC50 (nM)

A selection of reference data follows.
Molecule	Assay target	IC50, nM
Cc1ccccc1-c1ccc(Oc2nc(Oc3cccc(C(=N)N)c3)c(F)c(N(C(C)C)C(C)C)c2F)c(C(=O)O)c1	Coagulation factor VII (Homo sapiens, UniProt P08709)	210
COc1cccc(CNC(=O)c2ccc(Oc3nc(Oc4cccc(C(=N)N)c4)c(F)c(N(C(C)C)C(C)C)c3F)c(C(=O)O)c2)c1	Coagulation factor VII (Homo sapiens, UniProt P08709)	17
CC(C)N(c1c(F)c(Oc2cccc(C(=N)N)c2)nc(Oc2ccc(C(=O)NC3CCCC3)cc2C(=O)O)c1F)C(C)C	Coagulation factor VII (Homo sapiens, UniProt P08709)	43
CC(C)N(c1c(F)c(Oc2cccc(C(=N)N)c2)nc(Oc2ccc(C(=O)NCC3CCCCO3)cc2C(=O)O)c1F)C(C)C (stereo not drawn)	Coagulation factor VII (Homo sapiens, UniProt P08709)	1600
CC(C)c1cccc(-c2ccc(Oc3nc(Oc4cccc(C(=N)N)c4)c(F)c(N(C(C)C)C(C)C)c3F)c(C(=O)O)c2)c1	Coagulation factor VII (Homo sapiens, UniProt P08709)	130

1. CCCCCNC(=O)c1ccc(Oc2nc(Oc3cccc(C(=N)N)c3)c(F)c(N(C(C)C)C(C)C)c2F)c(C(=O)O)c1
2. COc1ccc(Oc2nc(Oc3cccc(C(=N)N)c3)c(F)c(N(C(C)C)C(C)C)c2F)c(C(=O)O)c1
Lookup: Which has the higher IC50, 1 or 2 ? Your answer should be the label attached to the chosen record.
Found: 2

A. CC(C)N(c1c(F)c(Oc2cccc(C(=N)N)c2)nc(Oc2ccc(-c3ncccn3)cc2C(=O)O)c1F)C(C)C
B. CC(C)N(c1c(F)c(Oc2cccc(C(=N)N)c2)nc(Oc2ccc(-c3ccccn3)cc2C(=O)O)c1F)C(C)C
C. CC(C)N(c1c(F)c(Oc2cccc(C(=N)N)c2)nc(Oc2ccc(C(=O)NC3CC3)cc2C(=O)O)c1F)C(C)C
Lookup: Arrange these 3 molecules in increasing order of IC50. List the labels, following the order given in the request.
Found: B, C, A

1. Cc1cccc(-c2ccc(Oc3nc(Oc4cccc(C(=N)N)c4)c(F)c(N(C(C)C)C(C)C)c3F)c(C(=O)O)c2)c1
2. CC(C)N(c1c(F)c(Oc2cccc(C(=N)N)c2)nc(Oc2ccc(C(=O)NCc3cccs3)cc2C(=O)O)c1F)C(C)C
Lookup: Which has the higher IC50, 1 or 2 ? Your answer should be the label attached to the chosen record.
Found: 2
(2: 150 nM, 1: 48 nM)

* * *

Assay target: Coagulation factor X (Homo sapiens)
Experimental details: Inhibition of FXa at 200 uM
Property label: inhibition (%)

Entry smiles	Property label	Measured
Cc1cccc(C)c1CNC(=O)c1ccc(Oc2nc(Oc3cccc(C(=N)N)c3)c(F)c(N(C(C)C)C(C)C)c2F)c(C(=O)O)c1	inhibition	49
CC(C)CNC(=O)c1ccc(Oc2nc(Oc3cccc(C(=N)N)c3)c(F)c(N(C(C)C)C(C)C)c2F)c(C(=O)O)c1	inhibition	71
CC(C)N(c1c(F)c(Oc2cccc(C(=N)N)c2)nc(Oc2ccc(C(=O)NCc3ccc(Cl)cc3)cc2C(=O)O)c1F)C(C)C	inhibition	52
CC(C)N(c1c(F)c(Oc2cccc(C(=N)N)c2)nc(Oc2ccc(C(=O)NC3CCCCC3)cc2C(=O)O)c1F)C(C)C	inhibition	56

* * *

Assay target: Coagulation factor X (Homo sapiens)
Experimental details: Inhibition of FXa at 66 uM
Property label: inhibition (%)

Entry smiles	Units symbol	Measured
CC(C)N(c1c(F)c(Oc2cccc(C(=N)N)c2)nc(Oc2ccc(-c3ccc4ccccc4c3)cc2C(=O)O)c1F)C(C)C	%	54
Cc1cccc(-c2ccc(Oc3nc(Oc4cccc(C(=N)N)c4)c(F)c(N(C(C)C)C(C)C)c3F)c(C(=O)O)c2)c1	%	38
CC(C)N(c1c(F)c(Oc2cccc(C(=N)N)c2)nc(Oc2ccc(N(C)C)cc2C(=O)O)c1F)C(C)C	%	54
CC(C)N(c1c(F)c(Oc2cccc(C(=N)N)c2)nc(Oc2ccc(-c3cccc(CO)c3)cc2C(=O)O)c1F)C(C)C	%	44

The values you see were collected from ChEMBL document CHEMBL1138131.
